Test: P-glycoprotein substrates identified in KB-8-5-11 adenocarcinoma cell line, qHTS therapeutic library screen (AID 1346987); also: nearly all actives have a fitted effect of over 65% in size
Details: KB-8-5-11 (P-gp overexpressing) viability, CellTiter-Glo, 72 h; series mostly up to 44.5 µM
Records with an inconclusive call do not appear. Activity calls are given as the source filed them. Calls follow the shape of the dose curve; as a rule, active = well fitted inhibition curve with a large enough effect; inconclusive = small, poorly fitted or top-dose-only effect; inactive = flat fitted curve, though single readings scatter.
Answer with one of the outcomes given here: Yes for active, No for inactive

NCCOc1cc(C(=O)Nc2cc(OCCN)c3ccccc3n2)nc(C(=O)Nc2cc(OCCN)c3ccccc3n2)c1 = No
Oc1cccc(C2NC(=S)Nc3cccc(F)c32)c1 (centres undefined) = Yes
CCN1CCN(Cc2ccc(NC(=O)c3ccc(C)c(Oc4ncnc5[nH]c(C)cc45)c3)cc2C(F)(F)F)CC1 = Yes
CCCC(CCC)C(N)=O = No
COc1cc(N2CCC(N)CC2)ccc1Nc1ncc(Cl)c(-c2c[nH]c3ccccc23)n1 = Yes
C=C1C(=O)O[C@@H]2[C@H]3C(C)=CC(=O)C3=C(C)CC[C@@H]12 = Yes

Prompt: // return assay outcome for `NS(=O)(=O)c1ccc(N2CCN(CC[C@@H]3OCCc4ccccc43)CC2)cc1`
Completion: No

Prompt: What is the recorded call for this compound in the test? CC(NC(=O)Cc1cc(F)cc(F)c1)C(=O)NC1C(=O)N(C)c2ccccc2-c2ccccc21 (centres undefined)
Completion: Yes

Prompt: Test call, this compound: `O=C(/C=C/c1ccccc1O)O[C@@H]1O[C@H](CO)[C@@H](O)[C@H](O)[C@H]1O`
Completion: No

Prompt: Hi, do you know how `O=C(Nc1cccc2cccnc12)c1ccc(N2C(=O)[C@@H]3C4C=CC(C4)[C@@H]3C2=O)cc1` came out in this test?
Completion: No

Prompt: Recorded call for `C[C@H](CSC(=O)c1ccccc1)C(=O)N1C[C@@H](Sc2ccccc2)C[C@H]1C(=O)O` ?
Completion: No

Prompt: Please indicate how the test categorized CC(O)(C(=O)C1CC1(CO)COC1OC(CO)C(O)C(O)C1O)C1C(O)CC2C3CC=C4CC(O)CC(O)C4(C)C3C(O)CC21C (centres undefined) .
Completion: Yes

Prompt: Which outcome was entered for the compound `CC1(C)SCCN(S(=O)(=O)c2ccc(Oc3ccncc3)cc2)[C@H]1C(=O)NO` in this test?
Completion: No
